# Tested on: 435261-313-R-J1-PDC complex spheroid viability
# run_description: Anticancer human tumor 435261-313-R-J1-PDC patient-derived colon adenocarcinoma cell line growth inhibition [GQUAD]; active = viability on the fitted dose curve at most 10% of control; inactive = the rest
# test_parameters: second compound 10 µM; first compound 0.316 µM
# Excerpt: DNA G-quadruplex Stabilizer Agents in Combinations in Complex Spheroids A high-throughput screen of multi-cell type tumor spheroids was designed to identify active combinations of DNA G-quadruplex stabilizer agents and targeted small molecules. […] Compounds. […] If the clinical Cmax for an agent had not been determined, the highest concentration tested was 10 microM. […]
Entry note: the call must match one of active, inactive

A selection of reference data follows.
C=CC(=O)N1CCN(c2nc(=O)n(-c3c(C)ccnc3C(C)C)c3nc(-c4c(O)cccc4F)c(F)cc23)C(C)C1 (stereo unspecified) + Cc1[nH]c2ccc(F)cc2c1-c1nc2c3cccnc3c3ncccc3c2[nH]1 ... inactive
CCc1c2c(nc3ccc(O)cc13)-c1cc3c(c(=O)n1C2)COC(=O)[C@]3(O)CC + Cc1cnc(CNC(=O)c2c(=O)c3ccc(N4CCCN(C)CC4)nc3n3c2sc2ccccc23)cn1 ... active

## Task Give the logged outcome of this assay for the following compound: COc1ccc([C@@H](O)c2cc(-c3ncnc4cc(N5CCOCC5)ccc34)c(F)cc2Cl)nn1 + Cc1[nH]c2ccc(F)cc2c1-c1nc2c3cccnc3c3ncccc3c2[nH]1
## Result inactive

====

I'd be grateful if you could share measured viability, T/C for these entries.
# Tested on: 435261-313-R-J1-PDC complex spheroid viability
# run_description: Anticancer human tumor 435261-313-R-J1-PDC cell line growth inhibition [GQUAD];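 also: spheroids exposed to the agents for seven days before readout; percent of vehicle control viability with DMSO wells as 100%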
# test_parameters: second compound 3.16 µM; first compound 0.0316 µM; stronger effect = lower value
Give bare numbers, in %.

Below: 4 compounds and their reported viability, T/C.
C#Cc1c(F)ccc2cc(O)cc(-c3ncc4c(N5CC6CCC(C5)N6)nc(OCC56CCCN5CC(F)C6)nc4c3F)c12 (stereo not given) + Cc1[nH]c2ccc(F)cc2c1-c1nc2c3cccnc3c3ncccc3c2[nH]1 ... 51.2
CC1COCCN1c1cc(C2(O)CC3CCC(C2)O3)c2cnn(-c3ccn[nH]3)c2n1 (stereo not given) + Cc1cnc(CNC(=O)c2c(=O)c3ccc(N4CCCN(C)CC4)nc3n3c2sc2ccccc23)cn1 ... 12.3
CC(=O)O[C@H]1C(=O)[C@@]2(C)[C@H]([C@H](OC(=O)c3ccccc3)[C@]3(O)C[C@H](OC(=O)[C@H](O)[C@@H](NC(=O)c4ccccc4)c4ccccc4)C(C)=C1C3(C)C)[C@]1(OC(C)=O)CO[C@@H]1C[C@@H]2O + CN(C)c1ccc(Nc2c3ccc(NC(=O)CCN4CCCC4)cc3nc3cc(NC(=O)CCN4CCCC4)ccc23)cc1 ... 52.3
C#Cc1c(F)ccc2cc(O)cc(-c3ncc4c(N5CC6CCC(C5)N6)nc(OCC56CCCN5CC(F)C6)nc4c3F)c12 (stereo not given) + CN(C)c1ccc(Nc2c3ccc(NC(=O)CCN4CCCC4)cc3nc3cc(NC(=O)CCN4CCCC4)ccc23)cc1 ... 67.8

## Task Data request, read-out viability, T/C, for O=C(c1cc(Cc2n[nH]c(=O)c3ccccc23)ccc1F)N1CCN(C(=O)C2CC2)CC1 + CN(C)c1ccc(Nc2c3ccc(NC(=O)CCN4CCCC4)cc3nc3cc(NC(=O)CCN4CCCC4)ccc23)cc1
## Result 80.5
